Below, each of the compounds is paired with its reported inhibition value.
- TARGET_ENTITY: Leucine aminopeptidase (Plasmodium falciparum (isolate 3D7)) (UniProt Q8IL11)
- Sequence (Q8IL11 whole entry, looked up): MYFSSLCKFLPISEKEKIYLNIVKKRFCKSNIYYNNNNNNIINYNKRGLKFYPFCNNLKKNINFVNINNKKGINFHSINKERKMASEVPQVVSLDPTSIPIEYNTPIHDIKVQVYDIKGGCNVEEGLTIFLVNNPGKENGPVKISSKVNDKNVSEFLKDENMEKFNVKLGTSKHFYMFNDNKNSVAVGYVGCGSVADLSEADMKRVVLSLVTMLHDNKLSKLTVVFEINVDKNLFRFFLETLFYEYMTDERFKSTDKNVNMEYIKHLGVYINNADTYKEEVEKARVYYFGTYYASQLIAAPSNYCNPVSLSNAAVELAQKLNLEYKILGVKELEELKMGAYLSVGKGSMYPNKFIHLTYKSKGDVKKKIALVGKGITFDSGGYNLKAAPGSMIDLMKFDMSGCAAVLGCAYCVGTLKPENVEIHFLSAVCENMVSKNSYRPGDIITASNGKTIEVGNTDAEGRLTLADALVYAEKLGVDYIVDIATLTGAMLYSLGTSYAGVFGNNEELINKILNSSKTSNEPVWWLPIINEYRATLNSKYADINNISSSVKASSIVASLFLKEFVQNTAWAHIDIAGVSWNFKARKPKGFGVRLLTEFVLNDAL
- ASSAY_OVERVIEW: P. falciparum M17LAP inhibitors, primary screen, biochemical, fluorogenic H-Leu-NHMec substrate, 1536-well (AID 1619);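 note: plate controls were full reaction with DMSO carrier for no effect and no enzyme background for full effect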
- SETTINGS: recombinant M17LAP, H-Leu-NHMec fluorogenic kinetic assay; at 30 µM; hits give high values
About 830 (0.38%) of roughly 220,000 compounds were called active. Only a sample is shown. Potency and affinity values are given separately.
// units = %; emit number, no label

Reference set (2 entries):
CCN(CC)S(=O)(=O)c1cccc(C(=O)N/N=C/c2ccccc2OCC(=O)O)c1: 13.9
CCOC(=O)c1c(NC(=O)/C=C/C(=O)O)sc(C)c1-c1ccc(C)c(C)c1: 8.96

Task: What value of inhibition on Leucine aminopeptidase (Plasmodium falciparum (isolate 3D7)) (UniProt Q8IL11) does `O=C(CC12CC3CC(C1)CC(CC(=O)N1CCCC1)(C3)C2)N1CCCC1` have?
Output: 1.98

Task: Any idea what inhibition came out for `CCOC(=O)COc1cccc2c(=O)n(CC(=O)N3CCC(C)CC3)ccc12` on Leucine aminopeptidase (Plasmodium falciparum (isolate 3D7)) (UniProt Q8IL11)?
Output: 3.95

Task: So what inhibition did COc1ccc(OC)c(NC(=O)C2CC(C)=C(C)CC2C(=O)O)c1 (stereo not drawn) get with Leucine aminopeptidase (Plasmodium falciparum (isolate 3D7)) (UniProt Q8IL11)?
Output: 34.4

Task: For Leucine aminopeptidase (Plasmodium falciparum (isolate 3D7)) (UniProt Q8IL11), provide inhibition of `COCCn1c(N)c(N(Cc2ccccc2)C(=O)c2ccc(C#N)cc2)c(=O)[nH]c1=O` please.
Output: 1.64

Task: What is its inhibition for Leucine aminopeptidase (Plasmodium falciparum (isolate 3D7)) (UniProt Q8IL11)? Entry: COC(=O)c1ccc(CN2CCN(Cc3ccc(F)cc3)C(CCO)C2)cc1 (stereo not drawn)
Output: -9.03

Task: Find the measured inhibition: item `COC(=O)COc1cccc2c(=O)n(CC(=O)N3CCCCC3)ccc12` , target or system Leucine aminopeptidase (Plasmodium falciparum (isolate 3D7)) (UniProt Q8IL11).
Output: 12.9

Task: What measured inhibition is associated with `CCc1ccc(OC(=O)c2ccn(CC)n2)cc1` on Leucine aminopeptidase (Plasmodium falciparum (isolate 3D7)) (UniProt Q8IL11)?
Output: 2.96

Task: Reported inhibition for Leucine aminopeptidase (Plasmodium falciparum (isolate 3D7)) (UniProt Q8IL11), given `O=C(N/N=C\c1ccc2c(c1)OCO2)c1ccco1` ?
Output: 26.4

Task: GET /values?readout=inhibition&system=Leucine aminopeptidase (Plasmodium falciparum (isolate 3D7)) (UniProt Q8IL11)&item= `O=C(O)/C=C/c1cn(Cc2ccccc2)nc1-c1ccccc1`
Output: 22.2

Task: Query for Leucine aminopeptidase (Plasmodium falciparum (isolate 3D7)) (UniProt Q8IL11): what inhibition does the record show for `C=CCNC(=O)/C(=C\C=C\c1ccccc1)NC(=O)c1ccccc1Cl` ?
Output: -0.22

Task: Requested read-out inhibition, target or system Leucine aminopeptidase (Plasmodium falciparum (isolate 3D7)) (UniProt Q8IL11), entry `COC(=O)NCc1cc2cc(Cl)ccc2[nH]1`
Output: 8.05

Task: Form entry - test system: Leucine aminopeptidase (Plasmodium falciparum (isolate 3D7)) (UniProt Q8IL11); read-out: inhibition; compound: `Cc1cc(N=Cc2c(O)n(-c3ccc(C)c(C)c3)c(=O)c3ccccc23)no1`
Output: -34.1

Task: Under Leucine aminopeptidase (Plasmodium falciparum (isolate 3D7)) (UniProt Q8IL11): inhibition value of CCOC(=O)C1CCCCN1Cc1cn[nH]c1-c1ccc(F)cc1F (stereo not drawn) ?
Output: 0.93

Task: Recall the recorded inhibition for `Oc1ccc(-c2nc3ccccc3s2)c(O)c1` with Leucine aminopeptidase (Plasmodium falciparum (isolate 3D7)) (UniProt Q8IL11) and state it.
Output: -4.82

Task: Field: inhibition (Leucine aminopeptidase (Plasmodium falciparum (isolate 3D7)) (UniProt Q8IL11)). Entry: `COc1cccc(NC(=O)Nc2nnc(CC(=O)NCc3ccccc3)s2)c1`
Output: 8.42

Task: Query inhibition on Leucine aminopeptidase (Plasmodium falciparum (isolate 3D7)) (UniProt Q8IL11) for `COc1cccc2c(=O)n(CC(=O)N3CCCCC3)ccc12`
Output: 33.4

Task: # returns recorded inhibition (system: Leucine aminopeptidase (Plasmodium falciparum (isolate 3D7)) (UniProt Q8IL11)) for `CCOc1ccccc1NC(=O)N1CCN(S(C)(=O)=O)CC1`
Output: -3.49

====

- TARGET_ENTITY: Leucine aminopeptidase (Plasmodium falciparum (isolate 3D7)) (UniProt Q8IL11)
- ASSAY_OVERVIEW: P. falciparum M17LAP inhibitors, primary screen, biochemical, fluorogenic H-Leu-NHMec substrate, 1536-well (AID 1619);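 note: plate controls were full reaction with DMSO carrier for no effect and no enzyme background for full effect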
- SETTINGS: recombinant M17LAP, H-Leu-NHMec fluorogenic kinetic assay; at 30 µM; hits give high values
In all, about 220,000 compounds went through this assay and about 830 (0.38%) were called active. These entries were drawn from the full list. Potency and affinity values are given separately.
MEASURE: inhibition (%)
A number alone suffices; assume %.

See these solved cases before continuing.
Cc1noc(NS(=O)(=O)c2ccc(NC(=O)CSc3ncccn3)cc2)c1C: -8.95
Cc1sc(NC(=O)C2CCCC2)c(C#N)c1C: 3.61
O=C(CSc1nc2ccccc2s1)Nn1cnnc1: 6.17
COc1ccc(N2CC(O)(c3ccc(C)cc3)[N+]3=C2CCCC3)cc1 (stereo unspecified): 1.14
O=C(NCc1ccco1)C(c1ccccc1)N(Cc1cccnc1)C(=O)Cn1nnc2ccccc21 (stereo unspecified): 2.12
Cc1cc(NS(=O)(=O)c2ccc(NC(=O)Nc3ccccc3)cc2)no1: 53.6
Cc1cc(NS(=O)(=O)c2ccc(NC(=O)Nc3cccc(Cl)c3)cc2)no1: 41
Cc1cc(C)nc(SCC(=O)Nc2ccc(S(=O)(=O)Nc3ncccn3)cc2)n1: 0.08

Task: Which value of inhibition has been reported for Cc1ccc2c(c1)N(C(C)C(=O)NCc1ccccn1)C(=O)CO2 (stereo unspecified) in the records?
Output: -7.53

Task: Sample `O=C(CSc1ccccc1)Nc1ccc(S(=O)(=O)Nc2ncccn2)cc1` — what was its inhibition?
Output: 4.72

Task: Request the reported inhibition associated with `CCCCC(=O)Nc1nnc(-c2ccc(OC)cc2)s1`
Output: 4.4

Task: What value of inhibition has been reported for the following compound? `O=C(COC(=O)c1cncc(Br)c1)NCc1ccccc1`
Output: -0.29

Task: Param item = `COc1cc(/C=N/n2c(C)n[nH]c2=S)ccc1OCc1ccc(F)cc1` ; retrieve measured inhibition.
Output: -2.61

Task: Reported inhibition, compound `O=C(Nc1nnc(-c2ccccn2)o1)c1ccc(Br)cc1` : ____
Output: 8.43

Task: I'd like to know its inhibition. The compound in question is `COc1cccc2c(SCC(=O)N/N=C/c3ccc(O)cc3O)cc(C)nc12`
Output: 16.9

Task: State the recorded inhibition for this entry: `COc1ccc(N(C(=O)C(C)C)S(=O)(=O)c2ccc(Cl)cc2)cc1`
Output: -1.25

Task: I have this compound here, `Cc1ccccc1Nc1nc(N)nc(CSc2nnnn2-c2ccccc2)n1` , and I need its recorded inhibition.
Output: 2.91

Task: Param item = CC(C)CC(NC(=O)c1cccs1)c1nnc(SCc2ccc(Cl)c(Cl)c2)n1C (stereo unspecified) ; retrieve measured inhibition.
Output: 4.91

Task: Given the compound `CC(=O)Nc1sc2c(c1C#N)CCCC2` , what is its reported inhibition?
Output: -9.07

Task: # query: inhibition of entry `O=C1c2cccc3c([N+](=O)[O-])ccc(c23)C(=O)N1CCc1ccccn1`
Output: 3.49

Task: Could you share which inhibition value was measured for CC(Sc1nc(-c2ccc(F)cc2)cs1)C(=O)Nc1ccc(Cl)cn1 (stereo unspecified) ?
Output: 15.1

====

- TARGET_ENTITY: Leucine aminopeptidase (Plasmodium falciparum (isolate 3D7))
- ASSAY_OVERVIEW: P. falciparum M17LAP inhibitors, primary screen, biochemical, fluorogenic H-Leu-NHMec substrate, 1536-well (AID 1619);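 note: plate controls were full reaction with DMSO carrier for no effect and no enzyme background for full effect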
- SETTINGS: recombinant M17LAP, H-Leu-NHMec fluorogenic kinetic assay; at 30 µM; hits give high values
About 830 (0.38%) of roughly 220,000 compounds were called active. Only a sample is shown. Potency and affinity values are given separately.
MEASURE: inhibition (%)
Value expressed in %; do not type the unit.

// known answers, use as guide
Cc1ccc(NC2SC(=O)N(Cc3cccc(C(=O)O)c3)C2=O)c(C)c1 (stereo not drawn): -1
CN(C)c1ccc(/C=C2\CCC/C(=C\c3ccccc3)C2=O)cc1: 5.08
O=C(Nc1ccccc1)Nc1cccc(Cl)c1: 15.7

Task: Please look up its inhibition: `CCOc1ccc(C(=O)CN2CCN(S(=O)(=O)c3ccc(F)cc3)CC2)cc1`
Output: 26.6

====

- TARGET_ENTITY: Leucine aminopeptidase (Plasmodium falciparum (isolate 3D7))
- ASSAY_OVERVIEW: P. falciparum M17LAP inhibitors, primary screen, biochemical, fluorogenic H-Leu-NHMec substrate, 1536-well (AID 1619);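 note: plate controls were full reaction with DMSO carrier for no effect and no enzyme background for full effect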
- SETTINGS: recombinant M17LAP, H-Leu-NHMec fluorogenic kinetic assay; at 30 µM; hits give high values
In all, about 220,000 compounds went through this assay and about 830 (0.38%) were called active. These entries were drawn from the full list. Potency and affinity values are given separately.
MEASURE: inhibition (%)
The reply should contain only the number, in %.

COc1ccc(/C=N/Nc2ccc(C(=O)O)cc2)cc1OC: 25.7
COc1ccc(NC(=S)N(CCN2CCOCC2)Cc2cc3cc4c(cc3[nH]c2=O)OCCO4)cc1: 10.8
CCC(CC)c1nnc(NC(=O)C2=NNC(=O)CC2)s1: -4.73
Cc1cccc(C(=O)NCCC(=O)Nc2nc(C)c(Cc3ccc4c(c3)OCO4)s2)c1: -0.81
Cc1cccc(NC(=S)NNC(=O)c2cccc([N+](=O)[O-])c2)c1: 3.9

Task: Under Leucine aminopeptidase (Plasmodium falciparum (isolate 3D7)): inhibition value of `CCCC(=O)Nc1ccc(C(=O)NNC(=O)c2cccc([N+](=O)[O-])c2)cc1` ?
Output: 4.12

Task: # query: inhibition | item `Oc1ccc(-c2nc(-c3ccc(O)c(O)c3)cs2)cc1` | system: Leucine aminopeptidase (Plasmodium falciparum (isolate 3D7))
Output: 25.6

Task: Short answer please: inhibition, Leucine aminopeptidase (Plasmodium falciparum (isolate 3D7)), entry `COc1cc(-c2csc(C)n2)ccc1O`
Output: -9.57

Task: API: value(readout= inhibition, system= Leucine aminopeptidase (Plasmodium falciparum (isolate 3D7)), query= `Cc1ccc(CC(=O)N2CCOCC2)cc1` )
Output: 0.85

Task: Any idea what inhibition came out for `COc1cc(/C=N/Nc2ccc(C(=O)O)cc2)ccc1O` on Leucine aminopeptidase (Plasmodium falciparum (isolate 3D7))?
Output: 22.3

Task: Please tell me: inhibition of Cc1coc(C)c1C(=O)CC1(O)C(=O)Nc2cc(Cl)cc(Cl)c21 (stereo not drawn) , system Leucine aminopeptidase (Plasmodium falciparum (isolate 3D7))?
Output: -6.03

Task: Quick check: inhibition on Leucine aminopeptidase (Plasmodium falciparum (isolate 3D7)), item `CCCCC(=O)NNC(=S)NC(=O)c1ccc(C)cc1` ?
Output: 59.8

Task: Given the entry `Cc1cc(C(=O)CN2C(=O)C(=O)N(Cc3ccccc3)C2=O)c(C)n1-c1ccc2c(c1)OCCO2` , what inhibition was observed with Leucine aminopeptidase (Plasmodium falciparum (isolate 3D7))?
Output: -11.2

Task: # value lookup — system Leucine aminopeptidase (Plasmodium falciparum (isolate 3D7)), readout inhibition, item `O=C(/C=C/c1ccco1)Nc1cccnc1Cl`
Output: 5.61

Task: Find inhibition (Leucine aminopeptidase (Plasmodium falciparum (isolate 3D7))) for the entry `CCCCC(=O)Nc1cccc(NC(=O)c2cccc([N+](=O)[O-])c2)c1`
Output: 5.17

Taken from PubChem BioAssay AID1619.
